Reported normalized MFI values are given for each entry in this list.
- assayed.target: T1, huIL-17RA-FLAG-polyHis (human, UniProt Q96F46 33-320)
- T1 construct: also called IL-17RA-FLAG-pHis; wild-type IL-17RA
- assay.details: binning; IL-17RA held by bead mAb K
Respond with the number and no other words.

Known results for binders:
AMH11/AML11 (antibody, IgG2, V domains shown, human mAb from IgG2 XenoMouse mice; also called AM-11; antibody A) VH: QVQLVESGGGVVQPGRSLRLSCATSGITFSSYGMHWVRQAPGKGLEWVAVIWYDGSNKYYADSVKGRFTISRDNSKNTLYLQMNSLRAEDTAVYYCARDTKDYWGQGTLVTVSS VL: EIVMTQSPATLSVSPGERATLSCRASQSVSSNLAWYQQKPGQAPRLLIYGASTRAAGIPARFSGGGSGTAFTLTISNLQSEDFAVYYCQHYINWPKWTFGQGTKVDIK = 7210
AMH7/AML7 (antibody, IgG2, V domains shown, human mAb from IgG2 XenoMouse mice; also called AM-7; antibody D) VH: QVQLVQSGAEVKKPGASVKVSCKASGYTLTRYGISWVRQAPGQGLEWMGWISAYNGNTNYAQKLQGRVTMTTDTSTSTAYMELRSLRSDDTAVYYCARRDYDILTGYYNGFDPWGQGTLVTVSS VL: DIQMTQSPSSLSASVGDRVTITCRASQGIRNDLGWYQQKPGKAPKRLIYAASSLQSGVPSRFSGSGSGTEFTLTISSLQPEDFATYYCLQHKSYPLTFGGGTKVEIK = 8680
AMH21/AML21 (antibody, IgG2, V domains shown, human mAb from IgG2 XenoMouse mice; also called AM-21; antibody Q) VH: EVQLVESGGGSVQPGGSLRLSCAASGFTFSSYSMNWVRQAPGKGLEWVSIISSRSSIIHYADSVKGRFTISRDNAKNSLYLQMNSLRDEDTAVYYCARPKVGGGMDVWGQGTTVTVSS VL: DIQMTQSPSSLSASVGDRVTITCRASQGISNYLAWYQQKPGKFPELLIYAASTLQSGVPSRFSGSGSGTDFTLTISSLQPEDVATYYCQKYNRAPFTFGPGTKVDIK = -181

Proceeding to the next binder to report its normalized MFI.
Task item: Param item = AMH12/AML12 (antibody, IgG2, V domains shown, human mAb from IgG2 XenoMouse mice; also called AM-12; antibody M) VH: QVQLVQSGAEVKKPGASVKVSCKASGYTLTSYGISWVRQAPGQGLEWMGWISTYKGNTNYAQKLQGRVTMTTDTSTSTAYMELRSLRSDDTAVYYCARKQLVFDYWGQGTLVTVSS VL: EIVMTQSPATLSVSPGERATLSCRASQSISSSLAWYQQKPGQAPRLLIYGASTRATGIPARFSGSGSGTEFTLTISSLQSENFAVYYCQQYDNWPLTFGGGTKVEIK ; retrieve measured normalized MFI.
Reply: -5
